Test: Penetration into brain and peripheral nerve in dogs
Assay type: in vivo, dog
Settings: dog, brain/plasma, po, 25 mg kg-1, dog H, 25 mg kg-1 oral, 2 h; read-out: brain/plasma ratio
Attribute Measured: Kp at 2 h

>>> print(df.to_string())
                                   compound  numeric_result
0  O=C(Cn1ccnc1[N+](=O)[O-])NCc1ccccc1 [benznidazole, N-benzyl-(2-nitroimidazolyl) acetamide]            0.45

====

Assay: Penetration into brain and peripheral nerve in dogs
Type: in vivo, dog
Conditions: dog, peripheral nerve/plasma, po, 25 mg kg-1, dog G, 25 mg kg-1 oral, 1 h; read-out: peripheral nerve/plasma ratio
Attribute Measured: Kp at 1 h

                                   molecule  numeric_result
0  O=C(Cn1ccnc1[N+](=O)[O-])NCc1ccccc1 [benznidazole, N-benzyl-(2-nitroimidazolyl) acetamide]            0.41

====

Assay: Penetration into brain and peripheral nerve in dogs
Type: in vivo, dog
Details: dog, brain/plasma, po, 25 mg kg-1, dog G, 25 mg kg-1 oral, 2 h; read-out: brain/plasma ratio
Attribute Measured: Kp at 2 h

>>> df
                                   molecule  numeric_result
0  O=C(Cn1ccnc1[N+](=O)[O-])NCc1ccccc1 [benznidazole, N-benzyl-(2-nitroimidazolyl) acetamide]            0.39

====

Test: Penetration into brain and peripheral nerve in dogs
Type: in vivo, dog
Conditions: dog, brain/plasma, po, 25 mg kg-1, dog G, 25 mg kg-1 oral, 1 h; read-out: brain/plasma ratio
From the text: Br. J. Cancer (1984), 50, 291-303 Preclinical pharmacokinetics of benznidazole P. Workman', R.A.S. White2, M.I. Walton', L.N. Owen2* & P.R. Twentyman' 1MRC Clinical Oncology and Radiotherapeutics Unit, MRC Centre, Hills Road, Cambridge CB2 2QH, and 2Department of Clinical Veterinary Medicine, University of Cambridge, Madingley Road, Cambridge CB3 OES, UK. […]
Attribute Measured: Kp at 1 h

>>> print(df.to_string())
                                   molecule  numeric_result
0  O=C(Cn1ccnc1[N+](=O)[O-])NCc1ccccc1 [benznidazole, N-benzyl-(2-nitroimidazolyl) acetamide]            0.35

====

Assay: Whole plasma pharmacokinetics in dogs (HPLC)
Format: in vivo, dog
Conditions: collie crossbred, dog, plasma, po, larger crossbred dogs, oral administration; read-out: elimination t1/2, range
Attribute Measured: half-life

                                   compound         result
0  O=C(Cn1ccnc1[N+](=O)[O-])NCc1ccccc1 [benznidazole, N-benzyl-(2-nitroimidazolyl) acetamide]  9.5 to 11.2 h

====

Test: Whole plasma pharmacokinetics in dogs (HPLC)
Format: in vivo, dog
Details: dog, plasma, po; dogs, discussion summary; read-out: time of peak concentrations after oral dosing
Attribute Measured: Tmax

>>> df
                                   compound    result
0  O=C(Cn1ccnc1[N+](=O)[O-])NCc1ccccc1 [benznidazole, N-benzyl-(2-nitroimidazolyl) acetamide]  3 to 5 h

====

Experiment: Whole plasma pharmacokinetics of benznidazole in mice (HPLC)
Format: in vivo, mouse
Details: male, mouse, plasma, ip; BALB/c mice, 650 mg kg-1 i.p.; read-out: time of peak plasma concentration (converted)
Attribute Measured: Tmax (h)

>>> df
                                   compound  attribute_measured  numeric_result
0  O=C(Cn1ccnc1[N+](=O)[O-])NCc1ccccc1 [benznidazole, N-benzyl-(2-nitroimidazolyl) acetamide]                Tmax               1
